Assignment: determine reported remaining at 24 h for the given molecules.
# Assay procedure: Chemical stability of the compound at pH 7.4 measured for 24 hrs by HPLC analysis
# Type: physicochemical
# Condition details: buffer, read-out: Stability

Tell me the measured remaining at 24 h of Cc1cc(C(N)=O)c(-c2cccc(OC(=O)NC3CCN(CCc4ccccc4)CC3)c2)o1 , please. > 99%

Tell me the measured remaining at 24 h of Cc1cc(C(=O)O)c(-c2cccc(OC(=O)NCCCCCCc3ccccc3)c2)o1 , please. 92.7%

Tell me the measured remaining at 24 h of O=C(Oc1cccc(-c2nn[nH]n2)c1)N1CCN(CCCc2ccccc2)CC1 , please. > 99%

Tell me the measured remaining at 24 h of Cc1cc(C(N)=O)c(-c2cccc(OC(=O)N3CCN(CCCc4ccccc4)CC3)c2)o1 , please. > 99%

Tell me the measured remaining at 24 h of NC(=O)c1cn(-c2cccc(OC(=O)N3CCN(CCCc4ccccc4)CC3)c2)nn1 , please. > 99%

====

Assignment: determine reported remaining at 24 h for the given compounds.
# Assay procedure: Chemical stability of the compound at pH 7.4 measured for 24 hrs by HPLC analysis
# Format: physicochemical
# Condition details: buffer, read-out: Stability
Use % as the unit, but write only the number.

Tell me the measured remaining at 24 h of NC(=O)c1ccn(-c2cccc(OC(=O)NCCCCCCc3ccccc3)c2)c1 , please. 38

Tell me the measured remaining at 24 h of NC(=O)c1cn(-c2cccc(OC(=O)NCCCCCCc3ccccc3)c2)nn1 , please. 79

Tell me the measured remaining at 24 h of Cc1cc(C(N)=O)c(-c2cccc(OC(=O)NCCCCCCc3ccccc3)c2)o1 , please. 9

Tell me the measured remaining at 24 h of Cc1cc(C(=O)O)c(-c2cccc(OC(=O)N3CCN(CCCc4ccccc4)CC3)c2)o1 , please. 97

====

Assignment: determine reported IC50 for the given molecules.
# Tested system: Fatty-acid amide hydrolase 1 (Homo sapiens)
# Sequence (O00519 whole entry): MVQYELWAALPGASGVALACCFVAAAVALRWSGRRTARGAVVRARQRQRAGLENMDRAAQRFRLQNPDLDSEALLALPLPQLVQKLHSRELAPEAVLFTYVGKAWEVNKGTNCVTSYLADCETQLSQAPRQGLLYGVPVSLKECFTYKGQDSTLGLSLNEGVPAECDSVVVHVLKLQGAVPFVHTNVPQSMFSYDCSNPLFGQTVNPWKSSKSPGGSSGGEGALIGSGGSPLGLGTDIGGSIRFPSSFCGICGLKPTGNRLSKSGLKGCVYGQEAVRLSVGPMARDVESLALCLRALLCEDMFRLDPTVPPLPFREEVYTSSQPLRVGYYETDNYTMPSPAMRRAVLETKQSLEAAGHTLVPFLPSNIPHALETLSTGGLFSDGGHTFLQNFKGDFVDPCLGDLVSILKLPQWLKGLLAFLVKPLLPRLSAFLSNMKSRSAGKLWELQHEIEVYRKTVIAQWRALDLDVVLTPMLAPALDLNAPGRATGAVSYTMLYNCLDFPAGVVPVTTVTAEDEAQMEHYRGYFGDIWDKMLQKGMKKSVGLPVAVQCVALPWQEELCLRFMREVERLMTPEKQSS
# Assay procedure: Inhibition of human recombinant FAAH using AMC-AA as substrate preincubated for 30 mins followed by substrate addition and measured after 30 mins by multimode plate reader analysis

Tell me the measured IC50 of NC(=O)c1cn(-c2cccc(OC(=O)N3CCN(CCCc4ccccc4)CC3)c2)nn1 , please. 47.4 nM

Tell me the measured IC50 of NC(=O)c1ccn(-c2cccc(OC(=O)N3CCN(CCCc4ccccc4)CC3)c2)c1 , please. 10.1 nM

Tell me the measured IC50 of Cc1cc(C(N)=O)c(-c2cccc(OC(=O)N(C)C3CCN(CCc4ccccc4)CC3)c2)o1 , please. 6560 nM

Tell me the measured IC50 of Cc1cc(C(N)=O)c(-c2cccc(OC(=O)NC3CCN(CCc4ccccc4)CC3)c2)o1 , please. 188 nM

Tell me the measured IC50 of NC(=O)c1cn(-c2cccc(OC(=O)NCCCCCCc3ccccc3)c2)nn1 , please. 15.8 nM

Tell me the measured IC50 of Cc1cc(C(=O)O)c(-c2cccc(OC(=O)N3CCN(CCCc4ccccc4)CC3)c2)o1 , please. 128 nM

Tell me the measured IC50 of Cc1cc(C(N)=O)c(-c2cccc(OC(=O)N(C)C3CCN(CCc4ccccc4)CC3)c2)s1 , please. 8450 nM

Tell me the measured IC50 of Cc1cc(C(=O)O)c(-c2cccc(OC(=O)NCCCCCCc3ccccc3)c2)o1 , please. 10.5 nM

Tell me the measured IC50 of Cc1cc(C(N)=O)c(-c2cccc(OC(=O)N3CCN(CCCc4ccccc4)CC3)c2)s1 , please. 15.6 nM

Tell me the measured IC50 of O=C(NCCCCCCc1ccccc1)Oc1cccc(-c2nn[nH]n2)c1 , please. 7.54 nM

Tell me the measured IC50 of NC(=O)c1ccn(-c2cccc(OC(=O)NC3CCN(CCc4ccccc4)CC3)c2)c1 , please. 315 nM

Tell me the measured IC50 of Cc1cc(C(N)=O)c(-c2cccc(OC(=O)N3CCC(NCCCc4ccccc4)CC3)c2)o1 , please. 165 nM

Tell me the measured IC50 of NC(=O)c1ccn(-c2cccc(OC(=O)NCCCCCCc3ccccc3)c2)c1 , please. 3.72 nM

Tell me the measured IC50 of O=C(Oc1cccc(-c2nn[nH]n2)c1)N1CCN(CCCc2ccccc2)CC1 , please. 253 nM

Tell me the measured IC50 of Cc1cc(C(N)=O)c(-c2cccc(OC(=O)N3CCC(CCCc4ccccc4)CC3)c2)o1 , please. 11.7 nM

Tell me the measured IC50 of CN(C(=O)Oc1cccc(-n2ccc(C(N)=O)c2)c1)C1CCN(CCc2ccccc2)CC1 , please. > 10000 nM

Tell me the measured IC50 of Cc1cc(C(N)=O)c(-c2cccc(OC(=O)NC3CCN(CCc4ccccc4)CC3)c2)s1 , please. 194 nM

Tell me the measured IC50 of Cc1cc(C(N)=O)c(-c2cccc(OC(=O)NC3CCN(CCCc4ccccc4)CC3)c2)o1 , please. 407 nM

Tell me the measured IC50 of Cc1cc(C(N)=O)c(-c2cccc(OC(=O)N3CCC(NCCc4ccccc4)CC3)c2)o1 , please. 26.3 nM

Tell me the measured IC50 of Cc1cc(C(N)=O)c(-c2cccc(OC(=O)NCCCCCCN3CCN(C)CC3)c2)o1 , please. 1040 nM

Tell me the measured IC50 of Cc1cc(C(N)=O)c(-c2cccc(OC(=O)N3CCN(CCCc4ccccc4)CC3)c2)o1 , please. 8.29 nM

====

# Assay procedure: Solubility of compound at pH 7.4 measured for 24 hrs
# Assay type: physicochemical
# Condition details: buffer
Measurement kind: solubility at 24 h (µM)
Use µM as the unit, but write only the number.

Tell me the measured solubility at 24 h of O=C(Oc1cccc(-c2nn[nH]n2)c1)N1CCN(CCCc2ccccc2)CC1 , please. 272

Tell me the measured solubility at 24 h of Cc1cc(C(=O)O)c(-c2cccc(OC(=O)N3CCN(CCCc4ccccc4)CC3)c2)o1 , please. 259

Tell me the measured solubility at 24 h of NC(=O)c1cn(-c2cccc(OC(=O)N3CCN(CCCc4ccccc4)CC3)c2)nn1 , please. 38

Tell me the measured solubility at 24 h of Cc1cc(C(=O)O)c(-c2cccc(OC(=O)NCCCCCCc3ccccc3)c2)o1 , please. 172

Tell me the measured solubility at 24 h of NC(=O)c1ccn(-c2cccc(OC(=O)N3CCN(CCCc4ccccc4)CC3)c2)c1 , please. 42

Tell me the measured solubility at 24 h of Cc1cc(C(N)=O)c(-c2cccc(OC(=O)N3CCC(NCCc4ccccc4)CC3)c2)o1 , please. 206

Tell me the measured solubility at 24 h of O=C(NCCCCCCc1ccccc1)Oc1cccc(-c2nn[nH]n2)c1 , please. 108

Tell me the measured solubility at 24 h of Cc1cc(C(N)=O)c(-c2cccc(OC(=O)NC3CCN(CCc4ccccc4)CC3)c2)o1 , please. 67

Tell me the measured solubility at 24 h of Cc1cc(C(N)=O)c(-c2cccc(OC(=O)N3CCC(NCCCc4ccccc4)CC3)c2)o1 , please. 322

====

# Assay procedure: Chemical stability of the compound at pH 3 measured for 24 hrs by HPLC analysis
# Type: physicochemical
# Condition details: buffer, read-out: Stability
Measurement kind: remaining at 24 h (%)
Use % as the unit, but write only the number.

Tell me the measured remaining at 24 h of NC(=O)c1cn(-c2cccc(OC(=O)NCCCCCCc3ccccc3)c2)nn1 , please. 63

Tell me the measured remaining at 24 h of Cc1cc(C(N)=O)c(-c2cccc(OC(=O)NCCCCCCc3ccccc3)c2)o1 , please. 31

====

# Assay procedure: Chemical stability of the compound at pH 3 measured for 24 hrs by HPLC analysis
# Assay type: physicochemical
# Condition details: buffer, read-out: Stability
Assignment: determine reported remaining at 24 h for the given compounds.

Tell me the measured remaining at 24 h of NC(=O)c1cn(-c2cccc(OC(=O)N3CCN(CCCc4ccccc4)CC3)c2)nn1 , please. > 99%

Tell me the measured remaining at 24 h of NC(=O)c1ccn(-c2cccc(OC(=O)NCCCCCCc3ccccc3)c2)c1 , please. 32%

Tell me the measured remaining at 24 h of Cc1cc(C(N)=O)c(-c2cccc(OC(=O)N3CCC(NCCCc4ccccc4)CC3)c2)o1 , please. > 99%

====

Assignment: determine reported pIC50 for the given molecules.
# Tested system: Monoglyceride lipase (Homo sapiens, UniProt Q99685)
# Sequence (Q99685 whole entry): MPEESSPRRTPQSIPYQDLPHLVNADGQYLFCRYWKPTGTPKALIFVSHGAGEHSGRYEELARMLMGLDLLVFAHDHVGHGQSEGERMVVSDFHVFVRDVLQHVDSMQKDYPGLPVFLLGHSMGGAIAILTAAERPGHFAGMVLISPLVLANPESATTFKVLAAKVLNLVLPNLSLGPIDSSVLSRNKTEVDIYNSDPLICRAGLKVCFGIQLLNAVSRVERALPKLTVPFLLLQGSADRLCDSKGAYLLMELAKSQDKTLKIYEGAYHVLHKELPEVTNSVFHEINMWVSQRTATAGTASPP
# Assay procedure: Inhibition of human recombinant MAGL using 7-hydroxycoumarinyl arachidonate as substrate preincubated for 30 mins followed by substrate addition and measured after 30 mins by multimode plate reader analysis
pIC50: −log10 of the molar value.

Tell me the measured pIC50 of NC(=O)c1cn(-c2cccc(OC(=O)N3CCN(CCCc4ccccc4)CC3)c2)nn1 , please. 5.54

Tell me the measured pIC50 of NC(=O)c1ccn(-c2cccc(OC(=O)NC3CCN(CCc4ccccc4)CC3)c2)c1 , please. < 5.00

Tell me the measured pIC50 of CN(C(=O)Oc1cccc(-n2ccc(C(N)=O)c2)c1)C1CCN(CCc2ccccc2)CC1 , please. < 5.00

Tell me the measured pIC50 of Cc1cc(C(N)=O)c(-c2cccc(OC(=O)NC3CCN(CCc4ccccc4)CC3)c2)o1 , please. < 5.00

Tell me the measured pIC50 of Cc1cc(C(N)=O)c(-c2cccc(OC(=O)NCCCCCCN3CCN(C)CC3)c2)o1 , please. < 5.00

Tell me the measured pIC50 of Cc1cc(C(N)=O)c(-c2cccc(OC(=O)N3CCC(NCCCc4ccccc4)CC3)c2)o1 , please. 5.01

Tell me the measured pIC50 of Cc1cc(C(N)=O)c(-c2cccc(OC(=O)NC3CCN(CCc4ccccc4)CC3)c2)s1 , please. < 5.00

Tell me the measured pIC50 of O=C(Oc1cccc(-c2nn[nH]n2)c1)N1CCN(CCCc2ccccc2)CC1 , please. < 5.00

Tell me the measured pIC50 of NC(=O)c1cccc(-c2cccc(OC(=O)NC3CCCCC3)c2)c1 , please. 5.03

Tell me the measured pIC50 of NC(=O)c1ccn(-c2cccc(OC(=O)N3CCN(CCCc4ccccc4)CC3)c2)c1 , please. < 5.00

Source: ChEMBL document CHEMBL5331072
